Test system: rat mGluR5 (Rattus norvegicus, UniProt P31424)
Construct: expressed in transfected cells; host or cells: human embryonic kidney (HEK) cells
Sequence (P31424 21-1203): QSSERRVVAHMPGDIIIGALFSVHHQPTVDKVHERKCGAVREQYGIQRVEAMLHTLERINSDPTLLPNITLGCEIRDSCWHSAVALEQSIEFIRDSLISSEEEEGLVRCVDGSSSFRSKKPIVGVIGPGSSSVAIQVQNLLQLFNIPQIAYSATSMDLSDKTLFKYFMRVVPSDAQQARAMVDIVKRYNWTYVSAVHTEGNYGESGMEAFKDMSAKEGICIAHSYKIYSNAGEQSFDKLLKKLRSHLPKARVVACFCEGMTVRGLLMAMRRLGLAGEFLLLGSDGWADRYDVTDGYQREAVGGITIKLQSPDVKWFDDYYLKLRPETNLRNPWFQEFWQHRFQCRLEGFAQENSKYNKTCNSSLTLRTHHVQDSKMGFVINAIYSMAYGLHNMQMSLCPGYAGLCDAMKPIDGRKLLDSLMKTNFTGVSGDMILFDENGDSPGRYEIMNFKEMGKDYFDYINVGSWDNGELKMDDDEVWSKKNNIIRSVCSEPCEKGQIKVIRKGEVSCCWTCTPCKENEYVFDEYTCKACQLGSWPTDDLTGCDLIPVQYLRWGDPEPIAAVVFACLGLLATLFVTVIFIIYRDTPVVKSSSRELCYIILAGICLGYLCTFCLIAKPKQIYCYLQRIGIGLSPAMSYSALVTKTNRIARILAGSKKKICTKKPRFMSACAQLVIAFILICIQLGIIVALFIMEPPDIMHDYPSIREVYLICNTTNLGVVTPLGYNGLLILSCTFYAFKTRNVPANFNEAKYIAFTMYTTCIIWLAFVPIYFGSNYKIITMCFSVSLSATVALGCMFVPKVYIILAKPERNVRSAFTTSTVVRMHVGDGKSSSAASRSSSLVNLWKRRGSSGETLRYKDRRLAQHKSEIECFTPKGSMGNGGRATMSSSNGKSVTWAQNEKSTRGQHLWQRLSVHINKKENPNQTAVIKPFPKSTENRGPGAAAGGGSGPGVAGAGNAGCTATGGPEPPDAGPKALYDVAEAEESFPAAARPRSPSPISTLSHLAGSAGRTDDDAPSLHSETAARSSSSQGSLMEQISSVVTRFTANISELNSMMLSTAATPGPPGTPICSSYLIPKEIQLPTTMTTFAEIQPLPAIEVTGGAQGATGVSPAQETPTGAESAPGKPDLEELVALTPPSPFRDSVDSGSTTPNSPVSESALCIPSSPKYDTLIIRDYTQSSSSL
Test method notes: potentiation of mGluR5 response to glutamate, Ca2+ fluorescence (FDSS) in HEK cells transfected with rat mGluR5
Type: cell-based
Measurement conditions: HEK293; maximum extent of potentiation, normalized to maximal response to glutamate; SAR tables; read-out: % Glu Max
Measurement type: Emax (%)
// return numeric value only (unit: %, not printed)

These recorded examples may help you get a feel for the data.
O=C(c1ccc(C#Cc2ccc(F)c(F)c2)cc1)N1CCOCC1 [Compound 20l]
114
O=C(c1ccc(C#Cc2ccccn2)cc1)N1CCC(O)CC1 [Compound 19k]
49
O=C(c1ccc(C#Cc2ccc(F)cc2)cc1)N1CC(O)C1 [Compound 20o]
103
O=C(c1ccc(C#Cc2cccc(F)c2)cc1)N1CCC(O)CC1 [Compound 19b]
77
O=C(c1ccc(C#Cc2ccc(F)c(F)c2)cc1)N1CC(O)C1 [Compound 20p]
88
O=C(c1ccc(C#Cc2ccc(F)c(F)c2)cc1)N1CCC(CO)CC1 [Compound 20h]
104
CC1(O)CCN(C(=O)c2ccc(C#Cc3ccccc3F)cc2)CC1 [Compound 20a]
86
O=C(c1ccc(C#Cc2ccccc2F)cc1)N1CCC(CO)CC1 [Compound 20e]
88

Incoming: If you can, please state the reported Emax value of CC1(O)CN(C(=O)c2ccc(C#Cc3ccccc3)cc2)C1 .
Outgoing: 82

Incoming: I would be grateful if you could share the reported Emax for O=C(c1ccc(C#Cc2cccc(F)c2)cc1)N1CCC(CO)CC1 [Compound 20f] .
Outgoing: 86

Incoming: Can you share its Emax? I mean this compound: O=C(c1ccc(C#Cc2cccc(F)c2)cc1)N1CCOCC1 [Compound 20j]
Outgoing: 112

----------
Test system: rat mGluR5 (Rattus norvegicus, UniProt P31424)
Construct: expressed in transfected cells; host or cells: human embryonic kidney (HEK) cells
Test method notes: potentiation of mGluR5 response to glutamate, Ca2+ fluorescence (FDSS) in HEK cells transfected with rat mGluR5
Assay type: cell-based
Measurement conditions: Table 1, EC50 for potentiating the mGluR5 receptor; unit inferred; read-out: EC50
We'd kindly ask you to apply these EC50 classes: band A = under 90 nM, band B = from 90 nM up to 2000 nM, band C = 2000 nM and over

CC1CCCCN1C(=O)c1ccc(C(=O)Nc2ccc(F)cc2)cc1 (stereo not drawn)
band C

Incoming: Category of O=C(NCCCO)c1ccc(C#Cc2ccccc2)cc1 , please.
Outgoing: band A

Incoming: Textbook exercise: identify the category of the molecule given here, CC1(O)CCN(C(=O)c2ccc(C#Cc3ccccc3)cc2)CC1 [Compound 7a] , according to its measured value.
Outgoing: band A

Incoming: Which class does CC(C)C1(O)CCN(C(=O)c2ccc(C#Cc3ccccc3)cc2)CC1 [Compound 7c] fall in?
Outgoing: band B

----------
Test system: rat mGluR5 (Rattus norvegicus, UniProt P31424)
Construct: expressed in transfected cells; host or cells: human embryonic kidney (HEK) cells
Test method notes: potentiation of mGluR5 response to glutamate, Ca2+ fluorescence (FDSS) in HEK cells transfected with rat mGluR5
Type: cell-based
Measurement conditions: HEK293, read-out: % Glu Max, maximum extent of potentiation, normalized to maximal response to glutamate; SAR tables
Measurement type: Emax (%)
Just the number please, in %, no unit attached.

For orientation, consider the following solved cases.
COc1ccc(C2(O)CCN(C(=O)c3ccc(C#Cc4ccccc4)cc3)CC2)cc1
91
CC1(O)CCN(C(=O)c2ccc(C#Cc3ccccc3)cc2)CC1
82.5
O=C(c1ccc(C#Cc2ccccc2)cc1)N1CCC(O)(c2cccc(F)c2)CC1
92
CC(C)C1(O)CCN(C(=O)c2ccc(C#Cc3ccccc3)cc2)CC1
89.1
CCCC1(O)CCN(C(=O)c2ccc(C#Cc3ccccc3)cc2)CC1
90.1
O=C(c1ccc(C#Cc2ccccc2)cc1)N1CCC(O)(c2cccs2)CC1
95

For the next question, use this molecule.
Incoming: Look up Emax for this molecule: O=C(c1ccc(C#Cc2ccccc2)cc1)N1CCC(O)(c2ccc(F)cc2)CC1
Outgoing: 87

----------
Test system: rat mGluR5 (Rattus norvegicus, UniProt P31424)
Construct: expressed in transfected cells; host or cells: human embryonic kidney (HEK) cells
Test method notes: potentiation of mGluR5 response to glutamate, Ca2+ fluorescence (FDSS) in HEK cells transfected with rat mGluR5
Assay type: cell-based
Measurement conditions: Table 1, EC50 for potentiating the mGluR5 receptor; unit inferred; read-out: EC50
pEC50: −log10 of the molar value.
Each record's pEC50 is compared with bucket 1 (below 6), bucket 2 (6 to below 7), bucket 3 (7 or more) to give its class.

O=C(c1ccc(C#Cc2ccc(F)cc2)cc1)N1CCOCC1 [Compound 20k]
bucket 3

Incoming: Which bin should I file CC1(O)CCN(C(=O)c2ccc(C#Cc3ccccc3F)cc2)CC1 [Compound 20a] under?
Outgoing: bucket 3

Incoming: The entry to classify is C[C@@H](CNC(=O)c1ccc(C#Cc2ccccc2)cc1)c1ccccc1 ; which class holds it?
Outgoing: bucket 3

Incoming: Form field 'band' for O=C(c1ccc(C#Cc2ccccc2)cc1)N1CCC(O)(c2ccc(Cl)cc2)CC1
Outgoing: bucket 1

Incoming: Lab log: O=C(c1ccc(C#Cc2ccc(F)cc2)cc1)N1CCC(O)CC1 [Compound 19c] — assign pEC50 category
Outgoing: bucket 3

Incoming: // bin(item) where item = O=C(c1ccc(C#Cc2ccc(F)c(F)c2)cc1)N1CC(O)C1 [Compound 20p]
Outgoing: bucket 2

Incoming: Which class does O=C(c1ccc(C#Cc2ccccc2)cc1)N1CC(O)(c2cccs2)C1 fall in?
Outgoing: bucket 1

Incoming: In plain terms, what class is O=C(c1ccc(-c2nc(-c3ccc(F)cc3)no2)cc1)N1CCN(c2ccncc2)CC1 ?
Outgoing: bucket 1

Incoming: Hello team, could you let me know which band the following compound falls into: O=C(c1ccc(C#Cc2ccccc2)cc1)N1CCC2CCCCC2C1 (centres unmarked)
Outgoing: bucket 2

----------
Test system: rat mGluR5 (Rattus norvegicus)
Construct: expressed in transfected cells; host or cells: human embryonic kidney (HEK) cells
Test method notes: potentiation of mGluR5 response to glutamate, Ca2+ fluorescence (FDSS) in HEK cells transfected with rat mGluR5
Format: cell-based
Measurement conditions: Table 1, EC50 for potentiating the mGluR5 receptor; unit inferred; read-out: EC50
pEC50: −log10 of the molar value.
Response key: Met means pEC50 >= 6; Not met means pEC50 < 6.

COc1ccccc1N1CCN(C(=O)c2ccc(C#Cc3ccccc3)cc2)CC1
Not met
O=C(c1ccc(C#Cc2ccccc2)cc1)N1CCN(c2ccncc2)CC1
Not met

Would you kindly look at the next entry?
Incoming: Check this compound for pEC50 at or above 6: O=C(c1ccc(C#Cc2ccccc2)cc1)N1CCC(NC2CCC2)CC1
Outgoing: Met

----------
Test system: rat mGluR5 (Rattus norvegicus)
Construct: expressed in transfected cells; host or cells: human embryonic kidney (HEK) cells
Test method notes: potentiation of mGluR5 response to glutamate, Ca2+ fluorescence (FDSS) in HEK cells transfected with rat mGluR5
Type: cell-based
Measurement conditions: potentiation of glutamate response, HEK cells transfected with rat mGluR5; SAR tables; read-out: EC50
pEC50: −log10 of the molar value.
Short version: pEC50 at least 7 is 1 (yes), less is 0 (no).

Completed entries (count: 3):
O=C(c1ccc(C#CC2CCCCC2)cc1)N1CCC(O)CC1 [Compound 19m]
0 (no)
O=C(c1ccc(C#Cc2cccc(F)c2)cc1)N1CCC(CO)CC1 [Compound 20f]
1 (yes)
O=C(c1ccc(C#Cc2ccccc2)cc1)N1CCC(O)(c2cccs2)CC1 [Compound 7d]
0 (no)

Now take the following compound into account.
Incoming: Record CC(C)C1(O)CCN(C(=O)c2ccc(C#Cc3ccccc3)cc2)CC1 [Compound 7c] ; criterion: pEC50 no lower than 7. Met?
Outgoing: 0 (no)

----------
compounds and their reported pEC50
Test system: rat mGluR5 (Rattus norvegicus)
Construct: expressed in transfected cells; host or cells: human embryonic kidney (HEK) cells
Test method notes: potentiation of mGluR5 response to glutamate, Ca2+ fluorescence (FDSS) in HEK cells transfected with rat mGluR5
Assay type: cell-based
Measurement conditions: in vitro potency; read-out: In vitro
When answering, recall that pEC50 equals minus log10 of the concentration in mol/L, and write that number alone.

Sample records with pEC50:
O=C(c1ccc(C#Cc2ccccc2)cc1)N1CCC(CO)CC1
7.53
O=C(c1ccc(C#Cc2ccccc2)cc1)N1CCC(O)CC1
7.87

Incoming: Consider the compound shown here: CCCC1(O)CCN(C(=O)c2ccc(C#Cc3ccccc3)cc2)CC1 What is its recorded pEC50?
Outgoing: 5.90

----------
Test system: rat mGluR5 (Rattus norvegicus, UniProt P31424)
Construct: expressed in transfected cells; host or cells: human embryonic kidney (HEK) cells
Test method notes: potentiation of mGluR5 response to glutamate, Ca2+ fluorescence (FDSS) in HEK cells transfected with rat mGluR5
Assay type: cell-based
Measurement conditions: Table 1, EC50 for potentiating the mGluR5 receptor; unit inferred; read-out: EC50
Procedure: Human embryonic kidney (HEK) cells transfected with rat mGluR5 were plated in clear bottom assay plates for assay in a Functional Drug Screening System (FDSS). […] After establishment of a fluorescence baseline for twelve seconds, the compounds of the present invention were added to the cells, and the response in cells was measured. Five minutes later, an mGluR5 agonist (e.g., glutamate, 3,5-dihydroxyphenylglycine, or quisqualate) was added to the cells, and the response of the cells was measured. […]
Measurement type: pEC50
Bear in mind: pEC50 is minus log10 of a mol/L concentration; give just that figure.

Solved entries (count: 4):
CC1(O)CN(C(=O)c2ccc(C#Cc3ccccc3)cc2)C1
6.92
O=C(c1ccc(C#Cc2ccccc2)cc1)N1CCN(c2ccccc2F)CC1
5.29
O=C(NC1CCCC1)c1ccc(C#Cc2ccccc2)cc1 [N-cyclopentyl-4-(phenylethynyl)benzamide]
8.56
N#Cc1ccccc1N1CCN(C(=O)c2ccc(C#Cc3ccccc3)cc2)CC1
5.38

Incoming: # input compound: O=C(c1ccc(C#Cc2ccccc2)cc1)N1CCN(c2ccccn2)CC1 ; wanted: its pEC50
Outgoing: 5.53

Incoming: Any idea what pEC50 was measured for O=C(c1ccc(C#Cc2cccc(F)c2)cc1)N1CC(O)C1 [Compound 20n] ?
Outgoing: 7.14

Incoming: Which value of pEC50 has been reported for O=C(c1ccc(C#Cc2ccc(F)c(F)c2)cc1)N1CCOCC1 [Compound 20l] in the records?
Outgoing: 7.45

Incoming: Record request: pEC50 value, item O=C(c1ccc(C#Cc2ccccc2)cc1)N1CCNCC1
Outgoing: 5.32

Incoming: Which pEC50 value belongs to CC1CCC(NC(=O)c2ccc(C#Cc3ccccc3)cc2)CC1 (centres unmarked) ?
Outgoing: 7.12

Incoming: Quick one: pEC50 for CN1CCN(C(=O)c2ccc(C#Cc3ccccc3)cc2)CC1 ?
Outgoing: 6.78

Incoming: Any idea what pEC50 was measured for O=C(NCCc1ccccc1Cl)c1ccc(C#Cc2ccccc2)cc1 ?
Outgoing: 6.87

Incoming: So what's the measured pEC50 for this one? O=C(c1ccc(C#Cc2ccccc2)cc1)N1CCC(O)(c2cccs2)CC1
Outgoing: 5.97

Incoming: Query: pEC50; subject: CCCNC(=O)c1ccc(-c2nc(-c3ccc(F)cc3)no2)cc1
Outgoing: 5.69

Incoming: State the recorded pEC50 for this entry: O=C(c1ccc(C#Cc2ccc(F)c(F)c2)cc1)N1CCC(CO)CC1 [Compound 20h]
Outgoing: 7.09

Incoming: Data request, read-out pEC50, for O=C(c1ccc(C#Cc2ccccc2F)cc1)N1CCC(O)CC1 [Compound 19a]
Outgoing: 7.55
